Target: T1, recombinant human IL-4 (human, UniProt P05112 25-153)
T1 sequence (looked up): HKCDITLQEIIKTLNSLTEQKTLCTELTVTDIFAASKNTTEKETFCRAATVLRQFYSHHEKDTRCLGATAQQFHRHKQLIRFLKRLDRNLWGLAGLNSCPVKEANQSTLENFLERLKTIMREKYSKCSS
Assay: cell-based or functional assay
METRIC NAME: IC50, inhibition of IL-4 induced TF-1 cell proliferation (nM)
// note: answer is a bare numeric in nM

Before answering, review these 2 worked examples.
Hu8D4-8 VL1 × VH2 (antibody, V domains shown, Expressed as a whole antibody, purified on Protein A; also called humanized 8D4-8 VL1xVH2) VH: QVQLQQSGPELVKPGASVKISCKASGYSFTSYWIHWIKQRPGQGLEWIGMIDASDGETRLNQRFQGRATLTVDESTSTAYMQLRSPTSEDSAVYYCTRLKEYGNYDSFYFDVWGAGTLVTVSS VL: DIQMTQSPASLSVSVGDTITLTCHASQNIDVWLSWFQQKPGNIPKLLIYKASNLHTGVPSRFSGSGSGTGFTLTISSLQPEDIATYYCQQAHSYPFTFGGGTKLEIKR : 0.135
mouse anti-IL-4 monoclonal antibody clone 8D4-8 (antibody, V domains shown, Bought mouse monoclonal antibody (Biozol / BioLegend); also called murine 8D4-8) VH: QVQLQQSGPQLVRPGTSVKISCKASGYSFTSYWIHWIKQRPGQGLEWIGMIDPSDGETRLNQRFKDRATLTVDRSSSTAYMQLRSPTSEDSALYYCTRLKEYGNYDSFYFDVWGAGTTVTVSS VL: DIQMNQSPASLSVSLGDTITLTCHASQNIDVWLSWFQQSPGNIPKLLIYKASNLHTGVPSRFSGSGSGTGFTLTISSLQPEDIATYYCQQAHSYPFTFGGGTKLEIKR : 0.097

// below: IC50, inhibition of IL-4 induced TF-1 cell proliferation requested for another binder
Identify IC50, inhibition of IL-4 induced TF-1 cell proliferation associated with the binder Hu8D4-8 VL1 × VH1 (antibody, V domains shown, Expressed as a whole antibody, purified on Protein A; also called hu8D4-8 VL1xVH1; humanized 8D4-8 VL1xVH1) VH: QVQLQQSGPELVKPGASVKISCKASGYSFTSYWIHWIKQRPGQGLEWIGMIDPSDGETRLNQRFQGRATLTVDESTSTAYMQLRSPTSEDSAVYYCTRLKEYGNYDSFYFDVWGAGTLVTVSS VL: DIQMTQSPASLSVSVGDTITLTCHASQNIDVWLSWFQQKPGNIPKLLIYKASNLHTGVPSRFSGSGSGTGFTLTISSLQPEDIATYYCQQAHSYPFTFGGGTKLEIKR 0.041
